Molecular target: Cytochrome P450 2D6 (Homo sapiens) (UniProt P10635)
Sequence (P10635 whole entry, looked up): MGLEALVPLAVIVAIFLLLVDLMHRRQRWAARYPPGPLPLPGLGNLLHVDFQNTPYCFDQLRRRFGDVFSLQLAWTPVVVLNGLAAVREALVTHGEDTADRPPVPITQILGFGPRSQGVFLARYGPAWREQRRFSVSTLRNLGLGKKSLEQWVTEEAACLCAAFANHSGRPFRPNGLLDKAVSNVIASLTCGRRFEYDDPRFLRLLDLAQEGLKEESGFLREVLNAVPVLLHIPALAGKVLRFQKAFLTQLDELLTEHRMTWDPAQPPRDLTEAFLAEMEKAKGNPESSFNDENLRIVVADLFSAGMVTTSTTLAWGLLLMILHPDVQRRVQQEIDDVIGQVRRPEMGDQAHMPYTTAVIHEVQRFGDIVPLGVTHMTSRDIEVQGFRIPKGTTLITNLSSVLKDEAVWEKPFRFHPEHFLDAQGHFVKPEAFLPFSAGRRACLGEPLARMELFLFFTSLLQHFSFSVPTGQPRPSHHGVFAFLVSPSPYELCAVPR
Assay: Cytochrome panel assay with activity outcomes
Conditions: recombinant CYP, pro-luciferin dealkylation, luminescence, p450-cyp2d6; series mostly up to 57.1 µM
The campaign covered roughly 16,000 compounds. About 2,600 (16%) were called active. Another 20% or so got no clear call; they are omitted. These entries were drawn from the full list.
observed property: AC50

COc1ccccc1CN1CC2(CCN(C(=O)c3ccncc3)CC2)C1 794 nM (active)
O=C(/C=C/c1ccc2ccccc2c1)c1ccoc1 inactive
CN1CCCC2(CCN(C(=O)c3cnccn3)CC2)C1 inactive

* * *

Biological target: Cytochrome P450 2D6 (Homo sapiens) (UniProt P10635)
Experiment: Cytochrome panel assay with activity outcomes
Details: recombinant CYP, pro-luciferin dealkylation, luminescence, p450-cyp2d6; series mostly up to 57.1 µM
Out of some 16,000 compounds screened, about 2,600 (16%) were called active. About 20% were inconclusive and are not listed. Calls follow the shape of the dose curve; as a rule, active = well fitted curve in the direction sought with a large enough effect; inconclusive = small, poorly fitted or top-dose-only effect, or effect the other way; inactive = no such curve, though single readings can be large or run the other way. Only a sample is shown.
Outcomes: True (active), False (inactive)

molecule	tested system	label value
O=C(O)C1CCN(c2ncnc3ccc(-c4ccccc4C(F)(F)F)cc23)CC1	Cytochrome P450 2D6 (Homo sapiens) (UniProt P10635)	False
COc1cccc2c1[C@@H]1CN(CCCCn3c(=O)[nH]c4c(sc5ncc(-c6ccccc6)nc54)c3=O)C[C@H]1CO2	Cytochrome P450 2D6 (Homo sapiens) (UniProt P10635)	True
Cc1ccccc1-n1ncc2c(SCC(=O)N3c4ccccc4CC3C)ncnc21 (stereo not given)	Cytochrome P450 2D6 (Homo sapiens) (UniProt P10635)	False
Cc1ccc(C)c(Cn2c(C(=O)OC(C)C)cc3c2ccn3C)c1	Cytochrome P450 2D6 (Homo sapiens) (UniProt P10635)	False
Cc1nc2ccccn2c1C(=O)N/N=C/c1ccccc1[N+](=O)[O-]	Cytochrome P450 2D6 (Homo sapiens) (UniProt P10635)	False
O=Nc1c(-c2c(O)[nH]c3ccccc23)[nH]c2ccccc12	Cytochrome P450 2D6 (Homo sapiens) (UniProt P10635)	False
Cn1c(=O)c(-c2ccc(Cl)cc2)nc2cnc(Nc3ccccc3)nc21	Cytochrome P450 2D6 (Homo sapiens) (UniProt P10635)	False
CN1CCN(c2ncc3nc(-c4ccc(F)cc4)c(=O)n(Cc4cccs4)c3n2)CC1	Cytochrome P450 2D6 (Homo sapiens) (UniProt P10635)	False
O=C(CC(=O)N/N=C\c1c(Cl)cccc1Cl)NCc1ccccc1	Cytochrome P450 2D6 (Homo sapiens) (UniProt P10635)	False
FC(F)(F)c1ccccc1-c1ccc2ncnc(NC3CC3)c2c1	Cytochrome P450 2D6 (Homo sapiens) (UniProt P10635)	True

* * *

Molecular target: Cytochrome P450 2D6 (Homo sapiens)
Experiment: Cytochrome panel assay with activity outcomes
Conditions: recombinant CYP, pro-luciferin dealkylation, luminescence, p450-cyp2d6; series mostly up to 57.1 µM
Among all 16,000 compounds or so, about 2,600 (16%) were called active. Roughly 20% stayed inconclusive and do not appear here. Calls come from the whole dose curve; as a rule, active = well fitted curve in the direction sought with a large enough effect; inconclusive = small, poorly fitted or top-dose-only effect, or effect the other way; inactive = no such curve, though single readings can be large or run the other way. The list is a sample of the results.
Outcomes: active, inactive

compound	label value
CCCN[C@@H](C)C(=O)Nc1c(C)csc1C(=O)OC	inactive
O=C1Oc2ccccc2C2(O)C3CCCCCC3C12 (configuration not stated)	inactive
C[C@@H](Cc1cccc(C(F)(F)F)c1)NCCOC(=O)c1ccccc1	active
Cn1c(CNS(=O)(=O)c2ccc(Cl)cc2)n[nH]c1=S	inactive
CC(=O)N1N=C(c2cccc([N+](=O)[O-])c2)OC1c1ccc(Cl)cc1Cl (configuration not stated)	inactive
Cc1ccccc1OCC(=O)NC(=S)Nc1ccc(Br)c(C)n1	inactive
CCC(C(=O)Nc1cccc(C(F)(F)F)c1)c1ccccc1 (configuration not stated)	inactive
Cc1cc(Nc2ccccc2)nc(N)n1	active
CCN(CC)C(=O)C1CCCN(c2ccc([N+](=O)[O-])cc2/C=N/NC(=O)c2ccc([N+](=O)[O-])cc2)C1 (configuration not stated)	inactive
C/C(=N/Nc1ccc2ccccc2n1)c1ccccc1O	active
CCOC(=O)c1c(NC(C)=O)sc2c(OC)cccc12	inactive
COc1ccccc1CNCC(O)(c1ccc(Cl)cc1)c1ccc(Cl)cc1	active
CCOc1cc(/C=C2\CCC/C(=C\c3cc(Cl)c(O)c(OCC)c3)C2=O)cc(Cl)c1O	inactive
CC1=CC(C)(C)N(C)C(=O)N1c1ccc(Cl)cc1	inactive
FC(F)(F)c1nnc2c(Sc3ccc(Cl)cc3)nc3ccccc3n12	inactive
CCS(=O)(=O)N1CCC(C(=O)NCc2ccccc2OC)CC1	inactive
Cc1[nH]n(-c2ccccc2)c(=O)c1CCOC(=O)c1cccc(C(F)(F)F)c1	inactive

* * *

Target: Cytochrome P450 2D6 (Homo sapiens)
Experiment: Cytochrome panel assay with activity outcomes
Conditions: recombinant CYP, pro-luciferin dealkylation, luminescence, p450-cyp2d6; series mostly up to 57.1 µM
Protocol: The P450 gene superfamily is involved in the metabolism and clearance of xenobiotics. This assay used various human CYP P450 isozymes to measure the dealkylation of various pro-luciferin substrates to luciferin. The luciferin is then measured by luminescence after the addition of a luciferase detection reagent. […] Inhibitors and some substrates limit the production of luciferin, and decrease measured luminescence. […] 8, Detection, 1 sec, ViewLux luminescent read […]
Screen size: about 16,000 compounds; about 2,600 (16%) were called active. Inconclusive results (about 20%) are left out. Calls follow the shape of the dose curve; as a rule, active = well fitted curve in the direction sought with a large enough effect; inconclusive = small, poorly fitted or top-dose-only effect, or effect the other way; inactive = no such curve, though single readings can be large or run the other way. The list is a sample of the results.
Outcomes: active, inactive

compound	label value
Cc1cnc(CNc2ncncc2-c2cccc(C#N)c2)cn1	inactive
CCNc1ncc2nc(CCc3ccccc3)c(=O)n(Cc3cccc(OC)c3)c2n1	inactive
COc1ccc(CNc2ccnc(-c3ccccc3CN(C)C)n2)c(OC)c1	active
O=C(Nc1ccccc1)/C(=C\c1ccncc1)NC(=O)c1ccccc1	inactive
CC(Sc1nnc(C(C)N(C)C)n1-c1ccc(Cl)cc1)C(=O)Nc1ccc2c(c1)OCO2 (configuration not stated)	active
Cc1cc(C)c2cc(C#N)c(NCCOC(=O)c3ccccc3C)nc2c1	inactive
COc1ccccc1CNc1ccnc(-c2ccccc2OC)n1	active

* * *

activity, negative = inhibition for assorted compounds
Biological target: Cytochrome P450 2D6 (Homo sapiens)
Experiment: Cytochrome panel assay with activity outcomes; as to activity, negative = inhibition: % is scaled to controls: 0 for no effect and ±100 for the full control effect
Conditions: recombinant CYP, pro-luciferin dealkylation, luminescence, p450-cyp2d6; series mostly up to 57.1 µM
The campaign covered roughly 16,000 compounds. About 2,600 (16%) were called active. Inconclusive results (about 20%) are left out. The list is a sample of the results.
observed property: activity, negative = inhibition

compound	measured value
O=C1C2C3C=CC(C2C(=O)N1CN1CCOCC1)C1C2C(=O)N(CN4CCOCC4)C(=O)C2C31 (configuration not stated)	17.4% [at 11.4 µM] (inactive)
O=C(O)CCc1nc(-c2ccccc2-n2cccc2)no1	-11.8% [at 11.4 µM] (inactive)
Nc1nc(SCc2ccccc2Cl)cc(C(=O)O)n1	4.28% [at 11.4 µM] (inactive)
NS(=O)(=O)c1ccc(N=Nc2ncccc2O)cc1	-13% [at 11.4 µM] (inactive)
C[C@H]1CN(CCO)CCN1c1ccccc1	11.2% [at 11.4 µM] (inactive)
O=C(O)c1cccc(C(=O)O)c1S(=O)Cc1ccccc1 (configuration not stated)	-0.655% [at 11.4 µM] (inactive)
O=C(O)CCC(=O)c1ccc(Cl)cc1	11.7% [at 11.4 µM] (inactive)
NC(=O)NC(=O)[C@H]1CCCC[C@@H]1C(=O)O	-4.03% [at 11.4 µM] (inactive)
O=C1C=CC(=Nc2cccc3c(N=C4C=CC(=O)O4)cccc23)O1	3.55% [at 11.4 µM] (inactive)
COc1cc(C2SCCCCCCCCCCSC(c3ccc(O)c(OC)c3)SCCCCCCCCCCS2)ccc1O (configuration not stated)	6.94% [at 11.4 µM] (inactive)
Cc1cc(C)c(-c2cc([C@H](C)O/N=C\[C@@H](C)[C@H](OCc3ccccc3)C(C)C)on2)c(C)c1	-7.16% [at 11.4 µM] (inactive)
CN1CCCN(C)C1c1cc([N+](=O)[O-])ccc1O	-9.66% [at 11.4 µM] (inactive)
COc1cccc([C@H](O)Cn2cc(-c3ccc(CON=C(C)C)cc3)nn2)c1	4% [at 11.4 µM] (inactive)
Cc1ccc(C2=Nc3ccccc3S[C@@H](c3cccc([N+](=O)[O-])c3)C2)cc1	4.11% [at 11.4 µM] (inactive)
O=C(O)COc1c(Cl)cc(Cl)c2cccnc12	2.9% [at 11.4 µM] (inactive)
COC(=O)CCCC(=O)O	8.35% [at 11.4 µM] (inactive)
O=C(O)[C@H]1CCCC[C@@H]1c1c2ccc(=O)c(O)c-2oc2c(O)c(O)ccc12	-0.179% [at 11.4 µM] (inactive)
CC(C)NC[C@@H](O)c1ccc(O)c2ncccc12	-18.5% [at 11.4 µM] (inactive)
CN(CCO)Cc1ncccc1O	-1.69% [at 11.4 µM] (inactive)
[Cu].[O-]/N=C1/C(=[OH+])Nc2ccccc21.[O-]Nc1c(O)[nH]c2ccccc12	-7.87% [at 11.4 µM] (inactive)
COc1ccc(O[C@H]2C=C[C@@H](c3ccccc3)O[C@H]2CO/N=C2/c3cc(OC)ccc3O[C@@H](c3cccc(OC)c3)[C@H]2O)cc1	-21.5% [at 11.4 µM] (inactive)
O=C(O)C[C@H](Cc1ccc2c(c1)OCO2)C(=O)O	-3.42% [at 11.4 µM] (inactive)
O=C(O)CSc1ccn(Cc2ccccc2)c1	9% [at 11.4 µM] (inactive)
CC1(C)[C@@H]2CC[C@]1(C)[C@@H](OC(=O)/C=C\c1ccccc1)C2	2.99% [at 11.4 µM] (inactive)
N=c1ccn2c(n1)O[C@H]1[C@@H](OP(=O)(O)O)[C@H](CO)O[C@H]12	10.3% [at 11.4 µM] (inactive)
C[C@@H](N1CCOCC1)[C@@](O)(c1ccccc1)c1ccccn1	-15% [at 11.4 µM] (inactive)
O=C(O)C(Cl)(c1ccccc1)c1ccccc1	6.11% [at 11.4 µM] (inactive)
CC1=C[N+](=O)c2ccccc2[N+]1=O	22.3% [at 11.4 µM] (inactive)
CO[C@H]1COC(=O)C/C=C\[C@H](C)[C@@H](OC)COC(=O)[C@H](Cc2ccccc2)NC(=O)C/C=C\[C@@H]1C	-13.7% [at 11.4 µM] (inactive)
CCOc1ccccc1/C=C(\C#N)C(N)=O	1.77% [at 11.4 µM] (inactive)
CO[C@@H](NC(N)=O)C(=O)O	2.43% [at 11.4 µM] (inactive)
C/C(CCN1CCc2nc(-c3ccccc3)c(-c3ccccc3)cc2C1)=N\OC[C@@H](O)COCc1ccco1	7.77% [at 11.4 µM] (inactive)
